Task for the reader: assign each of the following molecules its reported T1/2 Ratio (−) ABT.
Test: mouse liver microsome metabolic stability
Details: mouse liver microsomes, (−) ABT; normalized to propranolol

Consider the molecule COc1cc2nccc(Nc3cc(OC)c(OC)c(OC)c3)c2cc1OC and give its measured T1/2 Ratio (−) ABT. 1.3

Consider the molecule Fc1ccc2c(c1Nc1ccnc3ccc(Br)cc13)OCO2 and give its measured T1/2 Ratio (−) ABT. 0.05

Consider the molecule Brc1ccc2nccc(Nc3cccc4c3OCO4)c2c1 and give its measured T1/2 Ratio (−) ABT. 0.05

Consider the molecule Brc1ccc2nccc(Nc3ccc4cn[nH]c4c3)c2c1 and give its measured T1/2 Ratio (−) ABT. 9.8

###

Test: metabolite identification in mouse liver microsomes
Procedure: After centrifugation, the supernatant was subjected to analysis by LCMS, and structures of metabolites were assigned on the basis of their molecular weight and fragmentation pattern. Compounds were incubated at a concentration of 10 µM with mouse liver microsomes in the presence of an excess of NADPH. 1.1. General Numbering of Metabolites The metabolites are numbered according to their retention times in the gradient LC-MS analysis in positive […] ion mode. […] The M number increases […]
Reported Metric: Primary Metabolism Site

Below are worked cases with known answers.
- COc1cc(Nc2ccnc3ccc(C(F)(F)F)cc23)cc(OC)c1OC: Aniline
- COc1cc2nccc(Nc3cc(OC)c(OC)c(OC)c3)c2cc1OC: Aniline
- Fc1ccc(F)c(Nc2ccnc3ccc(Br)cc23)c1: Aniline
- Brc1ccc2nccc(Nc3cccc4c3OCO4)c2c1: Aniline

// below: Primary Metabolism Site requested for another molecule
Consider the molecule Fc1ccc(Nc2ccnc3ccc(Br)cc23)c(F)c1 and give its measured Primary Metabolism Site. Aniline

###

Biological target: BMP2K (Homo sapiens, UniProt Q9NSY1)
Sequence (Q9NSY1 whole entry): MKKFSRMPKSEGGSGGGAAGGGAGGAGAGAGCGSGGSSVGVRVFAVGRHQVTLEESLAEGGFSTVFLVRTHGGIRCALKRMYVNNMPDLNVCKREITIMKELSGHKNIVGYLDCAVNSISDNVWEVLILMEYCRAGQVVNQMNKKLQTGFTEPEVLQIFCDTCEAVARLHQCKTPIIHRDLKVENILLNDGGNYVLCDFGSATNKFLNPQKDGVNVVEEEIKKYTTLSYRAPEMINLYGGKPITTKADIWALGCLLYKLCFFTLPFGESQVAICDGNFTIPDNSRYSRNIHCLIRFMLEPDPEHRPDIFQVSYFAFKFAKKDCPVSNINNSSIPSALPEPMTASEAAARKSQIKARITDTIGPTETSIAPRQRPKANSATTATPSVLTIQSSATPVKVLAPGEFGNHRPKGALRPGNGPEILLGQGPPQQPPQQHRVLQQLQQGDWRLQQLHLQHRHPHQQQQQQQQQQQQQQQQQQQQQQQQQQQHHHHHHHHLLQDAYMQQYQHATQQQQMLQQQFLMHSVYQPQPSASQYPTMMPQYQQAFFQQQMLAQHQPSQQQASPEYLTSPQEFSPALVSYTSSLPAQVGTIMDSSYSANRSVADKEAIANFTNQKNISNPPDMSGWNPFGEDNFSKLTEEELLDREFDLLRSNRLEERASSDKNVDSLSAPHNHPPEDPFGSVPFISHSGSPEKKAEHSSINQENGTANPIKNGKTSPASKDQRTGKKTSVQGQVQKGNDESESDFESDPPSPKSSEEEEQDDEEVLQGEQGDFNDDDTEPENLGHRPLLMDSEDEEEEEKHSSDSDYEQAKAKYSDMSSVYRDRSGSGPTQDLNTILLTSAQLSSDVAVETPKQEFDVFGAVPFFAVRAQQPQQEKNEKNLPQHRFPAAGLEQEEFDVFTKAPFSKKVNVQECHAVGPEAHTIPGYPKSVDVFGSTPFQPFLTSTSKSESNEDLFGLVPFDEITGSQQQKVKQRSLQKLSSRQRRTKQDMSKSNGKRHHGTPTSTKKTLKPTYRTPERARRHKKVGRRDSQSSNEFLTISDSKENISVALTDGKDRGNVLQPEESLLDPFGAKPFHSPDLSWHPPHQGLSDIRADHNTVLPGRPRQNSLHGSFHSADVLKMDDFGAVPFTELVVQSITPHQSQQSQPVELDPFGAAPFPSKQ
Experiment: NAK family TR-FRET binding displacement assay
Task for the reader: assign each of the following compounds its reported Ki.
Write it as a number; the unit µM goes unstated.

Consider the compound Brc1ccc2nccc(Nc3cccc4ccoc34)c2c1 and give its measured Ki. 16

Consider the compound O=c1[nH]c2cc(Nc3ccnc4ccc(Br)cc34)ccc2o1 and give its measured Ki. 79

Consider the compound O=c1[nH]c2ccc(Nc3ccnc4ccc(Br)cc34)cc2[nH]1 and give its measured Ki. 22

Consider the compound O=c1[nH]c2ccc(Nc3ccnc4ccc(Br)cc34)cc2o1 and give its measured Ki. 4.9

Consider the compound Brc1ccc2nccc(Nc3ccc4cn[nH]c4c3)c2c1 and give its measured Ki. 6.5

Consider the compound Cn1nnc2c(Nc3ccnc4ccc(Br)cc34)cccc21 and give its measured Ki. 20

Consider the compound O=S1(=O)Cc2ccc(Nc3ccnc4ccc(Br)cc34)cc2C1 and give its measured Ki. 6.4

Consider the compound Brc1ccc2nccc(Nc3cccc4occc34)c2c1 and give its measured Ki. 11

Consider the compound COc1cccc(Nc2ccnc3ccc(Br)cc23)c1OC and give its measured Ki. 8.7

Consider the compound Brc1ccc2nccc(Nc3cccc4ncsc34)c2c1 and give its measured Ki. 7.9

Consider the compound Fc1ccc(F)c(Nc2ccnc3ccc(Br)cc23)c1 and give its measured Ki. 9.8

Consider the compound Brc1ccc2nccc(Nc3cccc4oncc34)c2c1 and give its measured Ki. 15

Consider the compound Brc1ccc2nccc(Nc3cccc4nc[nH]c34)c2c1 and give its measured Ki. 2.3

Consider the compound Brc1ccc2nccc(Nc3ccc4[nH]ncc4c3)c2c1 and give its measured Ki. 0.66

Consider the compound Brc1ccc2nccc(Nc3cccc4nonc34)c2c1 and give its measured Ki. 13

Consider the compound Brc1ccc2nccc(Nc3cccc4cnoc34)c2c1 and give its measured Ki. 12

Consider the compound Brc1ccc2nccc(Nc3cccc4[nH]ncc34)c2c1 and give its measured Ki. 7.4

###

Experiment: mouse liver microsome metabolic stability
Conditions: mouse liver microsomes; normalization with respect to internal control (propranolol)
Reported Metric: T1/2 Ratio
Kindly provide the number alone.

Consider the compound Brc1ccc2nccc(Nc3cccc4ccoc34)c2c1 and give its measured T1/2 Ratio. 0.08

Consider the compound Brc1ccc2nccc(Nc3cccc4ncsc34)c2c1 and give its measured T1/2 Ratio. 0.68

Consider the compound Brc1ccc2nccc(Nc3cccc4oncc34)c2c1 and give its measured T1/2 Ratio. 0.17

Consider the compound Brc1ccc2nccc(Nc3cccc4nsnc34)c2c1 and give its measured T1/2 Ratio. 0.20

Consider the compound Fc1c(F)c(F)c(Nc2ccnc3ccc(C(F)(F)F)cc23)c(F)c1F and give its measured T1/2 Ratio. 7.0

Consider the compound O=c1[nH]c2cc(Nc3ccnc4ccc(Br)cc34)ccc2o1 and give its measured T1/2 Ratio. 3.4

Consider the compound FC1(F)Oc2cccc(Nc3ccnc4ccc(Br)cc34)c2O1 and give its measured T1/2 Ratio. 0.24

Consider the compound Brc1ccc2nccc(Nc3cccc4nonc34)c2c1 and give its measured T1/2 Ratio. 0.15

Consider the compound Brc1ccc2nccc(Nc3cccc4nc[nH]c34)c2c1 and give its measured T1/2 Ratio. 1.0

Consider the compound Fc1ccc(F)c(Nc2ccnc3ccc(Br)cc23)c1 and give its measured T1/2 Ratio. 0.17

Consider the compound Brc1ccc2nccc(Nc3cccc4occc34)c2c1 and give its measured T1/2 Ratio. 0.16

Consider the compound Fc1ccc2c(c1Nc1ccnc3ccc(Br)cc13)OCO2 and give its measured T1/2 Ratio. 0.27

Consider the compound Fc1cc2cn[nH]c2cc1Nc1ccnc2ccc(Br)cc12 and give its measured T1/2 Ratio. 2.2

Consider the compound Brc1ccc2nccc(Nc3cccc4scnc34)c2c1 and give its measured T1/2 Ratio. 0.32

Consider the compound Brc1ccc2nccc(Nc3cccc4[nH]ncc34)c2c1 and give its measured T1/2 Ratio. 0.32

Consider the compound Cn1c(=O)[nH]c2cc(Nc3ccnc4ccc(Br)cc34)ccc21 and give its measured T1/2 Ratio. 4.2

Consider the compound Brc1ccc2nccc(Nc3cccc4ncoc34)c2c1 and give its measured T1/2 Ratio. 0.21

Consider the compound Brc1ccc2nccc(Nc3cccc4c3OCC4)c2c1 and give its measured T1/2 Ratio. 0.10

Consider the compound O=C1NCc2ccc(Nc3ccnc4ccc(Br)cc34)cc21 and give its measured T1/2 Ratio. 1.0

Consider the compound Cn1nnc2c(Nc3ccnc4ccc(Br)cc34)cccc21 and give its measured T1/2 Ratio. 0.09

Consider the compound Brc1ccc2nccc(Nc3ccc4cn[nH]c4c3)c2c1 and give its measured T1/2 Ratio. 9.8

Consider the compound Brc1ccc2nccc(Nc3cccc4c3CCO4)c2c1 and give its measured T1/2 Ratio. 0.16

###

Task for the reader: assign each of the following compounds its reported AUC(0-inf).
Assay: pharmacokinetic profiling in mice, oral dosing
Format: in vivo
Settings: male, C57BL/6, mouse, plasma, po, 10 mg/kg, C57BL/6 mice, 10 mg/kg po, 2 h pretreat 50 mpk ABT
Write it as a number; the unit ng·h/mL goes unstated.

Consider the compound COc1cc(Nc2ccnc3ccc(Br)cc23)cc(OC)c1OC [Compound 1] and give its measured AUC(0-inf). 1900

Consider the compound COc1cc2nccc(Nc3cc(OC)c(OC)c(OC)c3)c2cc1OC [Compound 8] and give its measured AUC(0-inf). 569

###

Experiment: mouse liver microsome metabolic stability
Conditions: mouse, mouse liver microsomes, Clint (mL/min/kg) (+) ABT, mouse liver microsomes, (+) ABT
Experimental: SGC-GAK-1 (1) was incubated with MLMs in the presence or absence of added NADPH, and the compound was quantified at various time points over an hour. The metabolic stability of the 4-anilinoquinolines (8–13) were evaluated in MLMs (Table 1). Half-lives for metabolic clearance were normalized to propranolol in each experimental run to control for variations in the MLM preparations.
Task for the reader: assign each of the following molecules its reported CLint scaled.
Write it as a number; the unit mL/min/kg goes unstated.

Consider the molecule Brc1ccc2nccc(Nc3ccc4cn[nH]c4c3)c2c1 [Compound 35] and give its measured CLint scaled. 35

Consider the molecule Fc1ccc2c(c1Nc1ccnc3ccc(Br)cc13)OCO2 [Compound 14] and give its measured CLint scaled. 2290

Consider the molecule COc1cc(Nc2ccnc3ccc(Br)cc23)cc(OC)c1OC [Compound 1] and give its measured CLint scaled. 40

Consider the molecule Brc1ccc2nccc(Nc3cccc4c3OCO4)c2c1 [Compound 9] and give its measured CLint scaled. 3140

###

Test: Kinetic Solubility
Format: physicochemical
Conditions: pH 7.4, aqueous buffer, kinetic from dmso stock; PBS pH7.4 (100 µM); read-out: Kinetic Solubility µM
Reported Metric: log10 of solubility kinetic (log10 of the value in µM)
A difference of one corresponds to tenfold solubility kinetic; all values are log10 with solubility kinetic in µM.

Consider the molecule Fc1ccc(Nc2ccnc3ccc(Br)cc23)c(F)c1 and give its measured log10 of solubility kinetic. 1.60

Consider the molecule COc1cc(Nc2ccnc3ccc(Br)cc23)cc(OC)c1OC and give its measured log10 of solubility kinetic. 1.76

Consider the molecule Brc1ccc2nccc(Nc3cccc4[nH]ncc34)c2c1 and give its measured log10 of solubility kinetic. 0.71

Consider the molecule Brc1ccc2nccc(Nc3ccc4cn[nH]c4c3)c2c1 and give its measured log10 of solubility kinetic. 1.09

Consider the molecule Brc1ccc2nccc(Nc3ccc4[nH]ncc4c3)c2c1 and give its measured log10 of solubility kinetic. 1.09

Consider the molecule Brc1ccc2nccc(Nc3cccc4nsnc34)c2c1 and give its measured log10 of solubility kinetic. 0.23

Origin of the recorded values: paper PMC6891286
